# Test system: P. yoelii liver stage in HepG2-A16-CD81EGFP, imaging
# Run description: exo-erythrocytic parasite development inhibition – imaging, Malaria Box, P. yoelii, HepG2-A16-CD81EGFP, dose response (AID 602156);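 also: infected cells exposed to compound for 48 hours before fixation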
The source made the active and inactive calls. No rule for the calls is given here.
Valid outcomes are listed here; reply with one: 1 (active), 0 (inactive)

Below are worked cases with known answers.
Query: Fill in: this test's call for CCCn1c(-c2cccc(Br)c2)nc2ccccc21 is ___
Result: 0

Query: Fill in: this test's call for O=C(NC1CC1)C1CCN(c2cccc3c2C(=O)N(Cc2cccc(C(F)(F)F)c2)C3=O)CC1 is ___
Result: 1

Query: Fill in: this test's call for CN1C(=O)N(C)C(NNC(N)=S)C1NNC(N)=S (stereo unspecified) is ___
Result: 1

Query: Fill in: this test's call for Cc1cc(Nc2cccc(F)c2)nc(NCc2ccccc2)n1 is ___
Result: 1

Query: Fill in: this test's call for CCOC(=O)c1cn(CC)c2cc(N(C)CCc3ccc(OC)c(OC)c3)c(F)cc2c1=O is ___
Result: 1

Attention now turns to another entry.
Query: Fill in: this test's call for CC(C)(C)C1CCc2[nH]c3ccccc3c(=O)c2C1 (stereo unspecified) is ___
Result: 1
